target: T1, native human ApoC3 (human, UniProt P02656 21-99, biotinylated in the captured-antigen assays (Tables 6 and 8); sites not stated); experiment: SPR, IgG captured via anti-human Fc, ApoC3 analyte 50 nM
T1 construct: also called nhuApoC3; native huApoC3
T1 sequence (P02656 21-99): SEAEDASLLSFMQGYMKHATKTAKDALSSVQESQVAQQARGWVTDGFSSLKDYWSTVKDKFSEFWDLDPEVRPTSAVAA
Measured Kd of individual entries
A number alone suffices; assume nM.

Below are worked cases with known answers.
29A06 IgG (antibody, V domains shown) VH: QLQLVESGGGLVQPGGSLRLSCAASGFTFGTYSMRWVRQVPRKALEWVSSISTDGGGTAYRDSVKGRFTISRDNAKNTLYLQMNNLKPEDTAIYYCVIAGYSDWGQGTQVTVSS VL: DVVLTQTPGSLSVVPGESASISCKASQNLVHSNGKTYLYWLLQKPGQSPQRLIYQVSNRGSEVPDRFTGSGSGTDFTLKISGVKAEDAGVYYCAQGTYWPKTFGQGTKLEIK | 0.755
29A05 IgG (antibody, V domains shown) VH: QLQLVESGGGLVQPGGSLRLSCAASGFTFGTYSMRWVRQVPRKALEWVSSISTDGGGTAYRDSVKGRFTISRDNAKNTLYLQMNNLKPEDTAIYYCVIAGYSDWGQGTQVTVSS VL: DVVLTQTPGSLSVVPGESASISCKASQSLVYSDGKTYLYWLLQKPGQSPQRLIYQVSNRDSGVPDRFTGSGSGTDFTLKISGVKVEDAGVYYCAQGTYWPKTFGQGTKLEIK | 6.01

API: the following record is the query input.
Query: State, in one line, measured Kd of 29F10 IgG (antibody, V domains shown) VH: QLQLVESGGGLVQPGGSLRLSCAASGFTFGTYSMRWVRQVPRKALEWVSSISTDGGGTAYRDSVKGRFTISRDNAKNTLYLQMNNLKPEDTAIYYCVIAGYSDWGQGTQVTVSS VL: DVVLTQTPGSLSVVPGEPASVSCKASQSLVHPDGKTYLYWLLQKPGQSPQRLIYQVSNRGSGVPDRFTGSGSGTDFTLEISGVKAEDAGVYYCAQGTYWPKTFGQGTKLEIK
Reply: 1.71
